src = ChEMBL document CHEMBL3988442

System: Wolbachia pipientis
Assay: Anti-Wolbachia Cell-Based Screen
Assay type: functional
Set-up: scale not given: in the data most compounds retested in dose-response had high values
Condition Parameters: 5 µM
The campaign covered roughly 48,000 compounds. About 13,000 (27%) showed an effect of 50% or more. The list shows a part of the results.
Below, each entry is listed alongside its reported Percent Effect.
Write the number in % without appending the unit.

1) CC(C)(C)c1cc(=O)[nH]c(-c2ccccc2CN2CCC[C@@H](O)C2)n1
-11.42
2) COc1ncnc(N(C)C)c1NC(=O)Cc1cc(F)ccc1F
-32.31

// Percent Effect (Wolbachia pipientis) for Cn1ccnc1CN1CCC(CCC(=O)Nc2ccccc2Cl)CC1 = 11.71

// Percent Effect (Wolbachia pipientis) for CC(C)c1nn(C)c(N2CCOCC2)c1CN[C@H](C)CO = -7.825
